List of ALP Level values.
Tested on: Rattus norvegicus
experimentalProtocol: Hepatoprotective activity against thioacetamide (200 mg/kg, sc) induced toxicity in rat at 6 mg/kg dose (po x 7 days), expressed as %protection afforded in various levels of alkaline phosphatase (ALP)
Format: functional
Field: numeric (U l-1). Do not append units.

compound	targetOfAssay	ALP Level [U l-1]
Cc1ccc(-c2cc(Cc3nnc(N)s3)n(-c3ccccc3)n2)cc1	Rattus norvegicus	196
CC(=N)S [THIOACETAMIDE]	Rattus norvegicus	218.9
COc1ccc(Cc2c(N)noc2N)cc1	Rattus norvegicus	215.9

Query block: Requested read-out ALP Level, target or system Rattus norvegicus, entry CC(=O)Nc1[nH]nc(N)c1Cc1ccc(Cl)cc1
Result block: 204

Query block: Requested read-out ALP Level, target or system Rattus norvegicus, entry Nc1noc(N)c1Cc1ccc2c(c1)OCO2
Result block: 205.8

Query block: Requested read-out ALP Level, target or system Rattus norvegicus, entry CN(C)c1ccc(Cc2c(N)n[nH]c2N)cc1
Result block: 187.1

Query block: Requested read-out ALP Level, target or system Rattus norvegicus, entry Nc1n[nH]c(N)c1Cc1ccc(Cl)cc1
Result block: 205.3

Query block: Requested read-out ALP Level, target or system Rattus norvegicus, entry Nc1nc(N)nc(Cc2cc(-c3ccc(Cl)cc3)[nH]n2)n1
Result block: 190.5

Query block: Requested read-out ALP Level, target or system Rattus norvegicus, entry CN(C)c1ccc(Cc2c(N)noc2N)cc1
Result block: 206.6
